All figures here come from paper PMC6658140.

# target or system: TropB (Talaromyces stipitatus, UniProt B8M9J8, R206Q)
# Sequence (B8M9J8 whole entry R206Q): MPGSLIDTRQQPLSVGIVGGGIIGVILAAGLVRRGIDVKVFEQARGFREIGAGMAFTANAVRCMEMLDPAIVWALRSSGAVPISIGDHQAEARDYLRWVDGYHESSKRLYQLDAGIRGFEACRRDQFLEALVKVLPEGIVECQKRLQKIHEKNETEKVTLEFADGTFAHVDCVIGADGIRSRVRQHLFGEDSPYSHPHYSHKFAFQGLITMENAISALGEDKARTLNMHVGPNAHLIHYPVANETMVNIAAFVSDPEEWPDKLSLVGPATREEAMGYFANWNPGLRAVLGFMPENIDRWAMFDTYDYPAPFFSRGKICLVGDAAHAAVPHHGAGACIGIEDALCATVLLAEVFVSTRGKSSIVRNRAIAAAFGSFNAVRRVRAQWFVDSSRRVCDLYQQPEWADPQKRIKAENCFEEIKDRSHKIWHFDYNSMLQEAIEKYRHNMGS
# protocol details: change in absorbance at […] nm

{"columns": ["smiles entry", "Kd [µM]"],
 "data": [
  ["Cc1cc(O)c(C)c(O)c1C=O", 32]
]}
